tested_system: Single-stranded DNA-binding protein (Escherichia coli (strain K12))
assay_method_text: E. coli SSB displacement from DNA, counter-screen for HCV NS3 helicase inhibitor project, biochemical, fluorescence polarization, NIH Clinical Collection (AID 743271)
experimental_context: hits give high values, concentration not given here
recorded_metric: inhibition (%)
Give a bare numeral; the unit % is implied.

{"structure": "CC[C@]1(O)CC[C@H]2[C@@H]3CCC4=CCCC[C@@H]4[C@H]3CC[C@@]21C", "value_units": "%", "recorded_measurement": 1.44}

Give the measured inhibition of C[C@]12CC[C@H](O)CC1=CC[C@@H]1[C@@H]2CC[C@@]2(C)[C@H]1CC[C@]2(C)O . -4.72

Follow-up item: C=CCN1CC[C@]23c4c5ccc(O)c4O[C@H]2C(=O)CC[C@@]3(O)[C@H]1C5 -4.29

Follow-up item: O=C1CN=C(c2ccccc2)c2cc([N+](=O)[O-])ccc2N1 2.21

Follow-up item: COc1cc2c(cc1OC)[C@@]13CCN4CC5=CCO[C@H]6CC(=O)N2[C@H]1[C@H]6[C@H]5C[C@H]43 2.76

====

tested_system: L-lactate dehydrogenase (Plasmodium falciparum (isolate CDC / Honduras))
assay_method_text: PfLDH activity inhibition – cell lysate, 3D7 strain, counter-screen for P. falciparum growth inhibition project (AID 2304);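 further: 0% = vehicle and 100% = reference inhibitor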
experimental_context: P. falciparum 3D7 crude extract, LDH APAD/NBT absorbance; at 2 µM; hits give high values
inhibition values by entry
Give a bare numeral; the unit % is implied.

Here is how some compounds turned out for inhibition.
{"compound": "Fc1ccc2[nH]cc(CCN3CCC(CNCc4ccccc4)CC3)c2c1", "inhibition [%]": 4}
{"compound": "CCN1CC[C@]2(c3cccc(OC)c3)Cc3nc4ccccc4c(-c4ccccc4)c3C[C@H]2C1", "inhibition [%]": -4}
{"compound": "CC[C@H]1CN2CC[C@@H]1C[C@H]2[C@H](O)c1cc(N2CCC(O)(c3ccccc3)CC2)nc2ccc(OC)cc12", "inhibition [%]": -2}

L-lactate dehydrogenase (Plasmodium falciparum (isolate CDC / Honduras)) / inhibition / COc1ccc(C(=O)[C@H]2C[C@@H]2CN2CC=C(c3c[nH]c4ccccc34)CC2)cc1 : value? 1

====

assay_method_text: HepG2 cytotoxicity, primary screen, cytotoxicity control for P. falciparum antimalarial project, cell-based, ATP luminescence (AID 2303);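 further: 0% = DMSO wells and 100% = digitonin-killed cells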
experimental_context: HepG2 viability, 24-48 h, at 10 µM, hits give high values
Active and inactive are the calls of the source.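 How the source made its calls: active means inhibition above 50%; inactive means the rest.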
inhibition values by entry

Here is how some compounds turned out for inhibition.
{"compound": "CN1CC=C(c2c[nH]c3ccc(Oc4ccccc4)cc23)CC1", "recorded_measurement": "40% (inactive)"}
{"compound": "CN1CC=C(c2c[nH]c3ccc(OCc4ccccc4)cc23)CC1", "recorded_measurement": "-2% (inactive)"}
{"compound": "CCCCCC(C)C(C)c1cc(O)c2c(c1)O[C@@]1(C(C)C)CC(O)[C@H](C)[C@@H]2C1 (stereo not given in full)", "recorded_measurement": "1% (inactive)"}
{"compound": "O=C(CNC1CCCCC1)c1ccc(O)c(O)c1", "recorded_measurement": "61% (active)"}

Give the measured inhibition of C=C[C@H]1CN2CC[C@H]1C[C@@H]2[C@@H](O)c1ccnc2ccccc12 . -7% (inactive)

Follow-up item: C1=C(c2c[nH]c3ccccc23)CCN(Cc2ccccc2)C1 22% (inactive)

Follow-up item: COc1cc(C=CC(=O)NC2CCC(CN3CCC(c4c[nH]c5ccccc45)CC3)CC2)cc(OC)c1 (stereo not given) 38% (inactive)

Follow-up item: COc1c(F)cc(CC(C)NCC(O)c2cccc(Cl)c2)cc1F (stereo not given) 0% (inactive)

Follow-up item: CN(c1cc(NC(=O)c2ccccc2)ccn1)C1CCN(Cc2cccc(F)c2)CC1 -6% (inactive)

Follow-up item: COC(=O)c1ccc(CC(C)NCC(O)c2cccc(C(F)(F)F)c2)c(Cl)c1 (stereo not given) -10% (inactive)

meta.source: PubChem BioAssay
